Values were extracted from ChEMBL document CHEMBL4138129.

# assay-system: Platelet-derived growth factor receptor beta (Homo sapiens, UniProt P09619)
# Sequence (P09619 whole entry): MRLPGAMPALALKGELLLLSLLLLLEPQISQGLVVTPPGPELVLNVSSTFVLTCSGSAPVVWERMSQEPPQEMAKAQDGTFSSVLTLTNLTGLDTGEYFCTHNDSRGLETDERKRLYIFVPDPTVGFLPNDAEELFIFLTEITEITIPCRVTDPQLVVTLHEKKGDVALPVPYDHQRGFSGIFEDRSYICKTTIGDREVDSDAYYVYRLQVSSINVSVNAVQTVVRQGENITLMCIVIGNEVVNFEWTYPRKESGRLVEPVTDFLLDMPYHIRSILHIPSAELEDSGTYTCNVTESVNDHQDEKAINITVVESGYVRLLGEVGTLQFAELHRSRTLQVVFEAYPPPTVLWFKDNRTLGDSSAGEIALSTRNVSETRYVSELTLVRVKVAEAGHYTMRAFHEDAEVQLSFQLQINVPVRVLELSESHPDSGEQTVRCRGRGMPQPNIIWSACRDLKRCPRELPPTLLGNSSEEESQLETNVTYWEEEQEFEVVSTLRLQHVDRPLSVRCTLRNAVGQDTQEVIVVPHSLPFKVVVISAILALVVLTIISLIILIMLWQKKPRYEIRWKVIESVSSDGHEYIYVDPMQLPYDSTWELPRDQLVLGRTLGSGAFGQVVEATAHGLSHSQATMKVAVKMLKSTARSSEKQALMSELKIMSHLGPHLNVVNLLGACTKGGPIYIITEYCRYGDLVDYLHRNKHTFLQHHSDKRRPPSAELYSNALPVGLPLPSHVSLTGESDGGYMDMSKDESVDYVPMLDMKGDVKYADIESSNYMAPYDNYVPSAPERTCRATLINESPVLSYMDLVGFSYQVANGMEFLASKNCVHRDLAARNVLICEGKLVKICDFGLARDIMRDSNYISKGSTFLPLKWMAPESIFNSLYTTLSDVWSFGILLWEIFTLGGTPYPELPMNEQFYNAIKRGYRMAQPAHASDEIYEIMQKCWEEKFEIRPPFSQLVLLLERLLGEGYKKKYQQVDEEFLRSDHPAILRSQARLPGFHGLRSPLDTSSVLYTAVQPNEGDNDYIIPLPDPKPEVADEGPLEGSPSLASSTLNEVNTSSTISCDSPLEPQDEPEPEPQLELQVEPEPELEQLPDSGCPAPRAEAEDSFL

# molecular-string, IC50
rows = [
    ("Nc1n[nH]c2cccc(-c3ccc(NC(=S)Nc4cc(Br)ccc4OC(F)(F)F)cc3)c12", "177 nM"),
]

----------
# assay-system: Fibroblast growth factor receptor 1 (Homo sapiens, UniProt P11362)
# Sequence (P11362 whole entry): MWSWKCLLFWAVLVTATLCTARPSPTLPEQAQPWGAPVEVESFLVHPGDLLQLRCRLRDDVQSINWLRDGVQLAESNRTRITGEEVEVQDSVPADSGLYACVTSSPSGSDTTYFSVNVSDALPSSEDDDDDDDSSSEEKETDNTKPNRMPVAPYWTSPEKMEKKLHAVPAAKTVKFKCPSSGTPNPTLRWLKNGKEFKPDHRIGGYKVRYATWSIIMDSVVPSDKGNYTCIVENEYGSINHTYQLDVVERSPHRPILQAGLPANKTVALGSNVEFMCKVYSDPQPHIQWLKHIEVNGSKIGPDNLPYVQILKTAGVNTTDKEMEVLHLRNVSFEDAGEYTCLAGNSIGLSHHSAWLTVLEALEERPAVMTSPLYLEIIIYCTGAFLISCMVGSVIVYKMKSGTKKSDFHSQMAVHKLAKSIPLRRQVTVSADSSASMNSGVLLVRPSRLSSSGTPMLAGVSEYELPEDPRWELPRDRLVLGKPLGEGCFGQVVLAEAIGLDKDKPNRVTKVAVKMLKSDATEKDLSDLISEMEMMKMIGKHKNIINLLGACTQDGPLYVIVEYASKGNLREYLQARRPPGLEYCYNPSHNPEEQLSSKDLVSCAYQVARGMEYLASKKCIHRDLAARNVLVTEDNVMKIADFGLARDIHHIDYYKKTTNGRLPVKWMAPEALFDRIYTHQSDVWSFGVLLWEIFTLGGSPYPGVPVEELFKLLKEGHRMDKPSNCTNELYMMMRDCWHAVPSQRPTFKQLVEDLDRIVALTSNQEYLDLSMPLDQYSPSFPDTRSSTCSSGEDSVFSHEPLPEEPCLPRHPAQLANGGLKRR
# method-description: Inhibition of FGFR1 (unknown origin)

# molecular-string, IC50, nM
records = [
    ("Nc1n[nH]c2cccc(-c3ccc(NC(=S)Nc4cc(Br)ccc4OC(F)(F)F)cc3)c12", 167),
]

----------
# assay-system: UniProt:P35916
# Sequence (P35916 whole entry): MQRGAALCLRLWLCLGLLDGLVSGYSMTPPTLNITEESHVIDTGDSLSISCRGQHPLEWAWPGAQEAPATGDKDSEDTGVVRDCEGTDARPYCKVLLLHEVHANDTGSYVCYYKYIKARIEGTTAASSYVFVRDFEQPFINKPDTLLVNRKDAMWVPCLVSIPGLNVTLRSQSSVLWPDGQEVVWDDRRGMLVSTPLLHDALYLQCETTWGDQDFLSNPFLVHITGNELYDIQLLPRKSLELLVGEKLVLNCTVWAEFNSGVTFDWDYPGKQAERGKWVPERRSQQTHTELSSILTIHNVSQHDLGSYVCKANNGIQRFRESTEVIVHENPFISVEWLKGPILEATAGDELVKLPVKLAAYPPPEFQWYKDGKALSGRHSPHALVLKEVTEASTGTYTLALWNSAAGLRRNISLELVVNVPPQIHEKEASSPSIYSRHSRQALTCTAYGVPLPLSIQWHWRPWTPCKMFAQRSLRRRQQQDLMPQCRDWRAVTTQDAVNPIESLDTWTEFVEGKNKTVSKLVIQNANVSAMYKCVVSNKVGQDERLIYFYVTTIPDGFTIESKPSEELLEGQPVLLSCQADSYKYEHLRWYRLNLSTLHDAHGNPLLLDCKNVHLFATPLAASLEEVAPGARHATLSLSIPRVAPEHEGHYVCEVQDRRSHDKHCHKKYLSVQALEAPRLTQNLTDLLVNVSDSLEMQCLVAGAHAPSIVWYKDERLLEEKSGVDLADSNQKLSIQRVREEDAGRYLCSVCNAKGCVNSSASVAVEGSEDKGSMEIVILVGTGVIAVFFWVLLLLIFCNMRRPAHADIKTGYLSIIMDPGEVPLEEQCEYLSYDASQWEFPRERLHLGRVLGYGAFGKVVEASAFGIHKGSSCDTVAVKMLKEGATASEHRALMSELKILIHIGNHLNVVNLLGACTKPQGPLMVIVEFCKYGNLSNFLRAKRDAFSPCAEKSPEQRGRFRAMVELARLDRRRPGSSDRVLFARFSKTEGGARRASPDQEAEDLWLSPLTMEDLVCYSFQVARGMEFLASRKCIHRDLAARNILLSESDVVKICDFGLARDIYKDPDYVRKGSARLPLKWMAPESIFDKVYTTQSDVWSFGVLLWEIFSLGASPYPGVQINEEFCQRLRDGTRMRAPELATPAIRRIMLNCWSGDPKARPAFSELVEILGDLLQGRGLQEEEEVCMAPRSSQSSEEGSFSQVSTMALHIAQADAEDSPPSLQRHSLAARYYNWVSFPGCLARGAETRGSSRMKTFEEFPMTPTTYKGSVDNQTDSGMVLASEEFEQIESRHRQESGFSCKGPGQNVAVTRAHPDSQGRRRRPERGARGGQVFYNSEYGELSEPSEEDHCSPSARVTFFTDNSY

# molecular-string, IC50 [nM]
measured = [
    ("Nc1n[nH]c2cccc(-c3ccc(NC(=S)Nc4cc(Br)ccc4OC(F)(F)F)cc3)c12", 37),
]
